tested on: Piricularia oryzae; assay: whole plant or invertebrate; format: in vivo; details: Pyricularia oryzae, 192 h, read-out: % Control

SMILES STR	STUDY SYSTEM	pest or weed control at 200 ppm, %
COC(=O)N(CC#CI)N=Cc1ccc(Cl)c(Cl)c1	Piricularia oryzae	90
COC(=O)N(CC#CI)N=Cc1ccc([N+](=O)[O-])o1	Piricularia oryzae	90
COC(=O)N(CC#CI)N=Cc1ccc(Cl)cc1	Piricularia oryzae	95
COC(=O)N(CC#CBr)N=Cc1cc(Cl)cc(Cl)c1	Piricularia oryzae	0
COC(=O)N(CC#CI)N=Cc1ccc(C)cc1	Piricularia oryzae	90
CCOC(=O)N(CC#CI)N=Cc1ccc(Cl)c(Cl)c1	Piricularia oryzae	0
COC(=O)N(CC#CI)N=Cc1ccccc1	Piricularia oryzae	90
COC(=O)N(CC#CI)N=Cc1cc(Cl)cc(Cl)c1	Piricularia oryzae	0
CCOC(=O)N(CC#CBr)N=Cc1ccc(Cl)c(Cl)c1	Piricularia oryzae	0
COC(=O)N(CC#CI)N=Cc1ccc(F)cc1	Piricularia oryzae	50
COC(=O)N(CC#CI)N=Cc1ccc(C#N)cc1	Piricularia oryzae	0
COC(=O)N(CC#CBr)N=Cc1ccc(F)cc1	Piricularia oryzae	0

---

system: Fusarium roseum; experiment: microbe, parasite or virus in culture; details: Fusarium sambucinum, read-out: % Control
Listed here: items and their measured inhibition of growth at 50 ppm.
TEST READOUT: inhibition of growth at 50 ppm

SMILES STR	TEST READOUT	VALUE REPORTED
O=C(c1ccccc1)N(CC#CI)N=Cc1cccc([N+](=O)[O-])c1	inhibition of growth at 50 ppm	0%
COC(=O)N(CC#CI)N=Cc1ccc(F)cc1	inhibition of growth at 50 ppm	100%
COC(=O)N(CC#CI)N=Cc1ccc(C#N)cc1	inhibition of growth at 50 ppm	100%
COC(=O)N(CC#CI)N=Cc1ccc(Cl)c(Cl)c1	inhibition of growth at 50 ppm	100%
COC(=O)N(CC#CI)N=Cc1ccc([N+](=O)[O-])o1	inhibition of growth at 50 ppm	100%
COC(=O)N(CC#CBr)N=Cc1ccc(F)cc1	inhibition of growth at 50 ppm	0%
COC(=O)N(CC#CI)N=Cc1ccccc1	inhibition of growth at 50 ppm	100%

---

Listed here: items and their measured inhibition of growth at 50 ppm.
tested on: Botrytis cinerea; assay: In-vitro plant fungicide test, BOC; conditions: read-out: % Control
TEST READOUT: inhibition of growth at 50 ppm

SMILES STR	STUDY SYSTEM	TEST READOUT	VALUE REPORTED
O=C(c1ccccc1)N(CC#CI)N=Cc1cccc([N+](=O)[O-])c1	Botrytis cinerea	inhibition of growth at 50 ppm	0%
COC(=O)N(CC#CBr)N=Cc1ccc(F)cc1	Botrytis cinerea	inhibition of growth at 50 ppm	0%
COC(=O)N(CC#CI)N=Cc1ccccc1	Botrytis cinerea	inhibition of growth at 50 ppm	0%
COC(=O)N(CC#CI)N=Cc1ccc(F)cc1	Botrytis cinerea	inhibition of growth at 50 ppm	0%
COC(=O)N(CC#CI)N=Cc1ccc(Cl)c(Cl)c1	Botrytis cinerea	inhibition of growth at 50 ppm	50%
COC(=O)N(CC#CI)N=Cc1ccc([N+](=O)[O-])o1	Botrytis cinerea	inhibition of growth at 50 ppm	0%
COC(=O)N(CC#CI)N=Cc1ccc(C#N)cc1	Botrytis cinerea	inhibition of growth at 50 ppm	50%
